Just for reference, patent US20220064272A1 is where these values come from.

- measured on: T1, TauC3 (C-terminally truncated tau fragment ending at aspartate 421 of htau40) (human, UniProt P10636 1-738)
- T1 construct: Generated and purified by Genscript; also called Human TauC3; recombinant TauC3 protein
- procedure details: Biacore kinetics, TauC3 amine-coupled on CM5, antibody series, 1:1 global fit
Give Kd for every item shown.
The figure you give is taken to be in nM; do not add the unit.

Query block: Report Kd, nothing else, for this binder: Tau01 HMKN HuG4k (antibody, V domains shown, human IgG4 kappa (HuG4K)) VH: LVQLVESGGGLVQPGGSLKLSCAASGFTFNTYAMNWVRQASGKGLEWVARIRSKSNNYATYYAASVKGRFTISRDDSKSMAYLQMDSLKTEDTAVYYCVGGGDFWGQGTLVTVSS VL: DIQMTQSPSSLSASVGDRVTITCRASQEISVYLGWYQQKPGKAPKRLIYGAFTLQSGVPSRFSGSRSGTEYTLTISSLQPEDFATYYCLQYVRYPWTFGGGTKVEIK
Result block: 0.0249

Query block: Using known records, supply Kd for Tau01 HCKB HuG4K (antibody, V domains shown, human IgG4 kappa (HuG4K)) VH: LVQLVESGGGLVQPGGSLKLSCAASGFTFNTYAMNWVRQASGKGLEWVGRIRSKSNNYATYYAASVKGRFTISRDDSKSMAYLQMDSLKTEDTAVYYCVGGGDFWGQGTLVTVSS VL: DIQMTQSPSSLSASVGDRVTITCRASQEISVYLSWFQQKPGKAIKRLIYGAFTLQSGVPSRFSGSRSGSEYTLTISSLQPEDFATYYCLQYVRYPWTFGGGTKVEIK
Result block: 1.24

Query block: Tell me measured Kd for Tau01 HMKO HuG4k (antibody, V domains shown, human IgG4 kappa (HuG4K)) VH: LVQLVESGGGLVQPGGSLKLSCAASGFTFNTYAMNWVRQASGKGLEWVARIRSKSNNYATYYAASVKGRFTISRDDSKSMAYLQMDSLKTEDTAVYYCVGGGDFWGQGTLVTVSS VL: DIQMTQSPSSLSASVGDRVTITCRASQEISVYLGWYQQKPGKAPKRLIYGAFSLQSGVPSRFSGSRSGTEYTLTISSLQPEDFATYYCLQYVRYPWTFGGGTKVEIK please.
Result block: 0.0594

Query block: Supply measured Kd of MoTau01 HuG4K chimeric antibody (antibody, V domains shown, Mouse variable regions with human IgG4 / kappa constant regions (pHuG4, pHuK); also called chimeric Tau01) VH: EVQVVESGGGLVQPKGSLKLSCAASGFTFNTYAMNWVRQAPGKGLEWVARIRSKSNNYATYYADSVKDRFTISRDDSQSMVYLQMNNLKTEDTAMYYCVGGGDFWGQGTALTVSS VL: DIQMTQSPSSLSASLGERVSLTCRASQEISVYLSWFQQKPDGTIKRLIYGAFTLDSGVPKRFSGSRSGSDYSLTISSLESEDFADYYCLQYVRYPWTFGGGTKLEIK in your reply.
Result block: 0.0574
